Entry source: PubChem BioAssay AID248

- System: L1210 leukemia ip in BDF1 mice, survival T/C
- measurement.description: NCI In Vivo Anticancer Drug Screen. Data for tumor model L1210 Leukemia (intraperitoneal) in B6D2F1 (BDF1) mice
- condition.label: endpoint: mean survival time; dose: 200.0 mg/kg/injection; schedule: Q01DX009 (ip); vehicle: saline with Tween-80; higher = longer survival
Toxic doses and inconclusive results are not listed.
endpoint.label: T/C

compound=Cc1ccc(Cl)c([N+](=O)[O-])c1N endpoint_label=T/C value_reported="95 % of control"
compound=OC(C1CCCCC1)(C1CCCCC1)C1CCCCC1 endpoint_label=T/C value_reported="96 % of control"
compound=C/C=C/CCCCC endpoint_label=T/C value_reported="94 % of control"
compound="COC1CC2C=CC1C2 (centres undefined)" endpoint_label=T/C value_reported="92 % of control"
compound=CC(=O)Cc1cc(=O)[nH]c(=O)[nH]1 endpoint_label=T/C value_reported="89 % of control"
compound=COC(OC)c1[nH]c(=S)[nH]c(=O)c1Cc1cc([N+](=O)[O-])ccc1O endpoint_label=T/C value_reported="91 % of control"
compound="CCCC(C)OC(=O)Nc1cccc(O)c1 (centres undefined)" endpoint_label=T/C value_reported="101 % of control"
compound=COc1ccccc1N1C(=O)CSC1=S endpoint_label=T/C value_reported="106 % of control"
compound=O=C(Nc1ccc(Cl)cc1)Oc1ccccn1 endpoint_label=T/C value_reported="91 % of control"
compound="CCCC(NC(=O)C(C)Br)C(=O)O (centres undefined)" endpoint_label=T/C value_reported="98 % of control"
compound=COc1ccc(/C=C2\N=C(c3cc(OC)c(OC)c(OC)c3)OC2=O)cc1Br endpoint_label=T/C value_reported="91 % of control"
compound=COC(=O)C/C=C/CC(=O)OC endpoint_label=T/C value_reported="90 % of control"
compound=Cc1ccc(-c2nn3c(-c4ccccc4)nnc3o2)cc1 endpoint_label=T/C value_reported="94 % of control"
compound=C(=C(c1ccccc1)c1ccccc1)c1ccccn1 endpoint_label=T/C value_reported="100 % of control"
